System: SN12C renal
ASSAY OVERVIEW: NCI-60 one-dose screen, 48 h (100 = growth as untreated, 0 = no growth, -100 = all killed)
CONDITIONS: 10 µM unless noted
Compounds without any hit were thinned out: in the full panel of roughly 83,000, 20% have a hit.
# if measured growth < 60%: 1  # else: -1

Query block: Is 60% strictly greater than the compound's reported growth? compound: `Cc1cc2cn3c4cccnc4[nH]c(=O)c3c2cc1C`
Result block: 1

Query block: Is 60% strictly greater than the compound's reported growth? compound: CO[C@H]1/C=C/O[C@@]2(C)Oc3c(C)c(O)c4c(O)c(c(/C=N/N5C(C)CN(Cc6ccccc6)CC5C)c(O)c4c3C2=O)NC(=O)/C(C)=C\C=C\[C@H](C)[C@H](O)[C@@H](C)[C@@H](O)[C@@H](C)[C@H](OC(C)=O)[C@@H]1C (some centres undefined)
Result block: -1

Query block: Is 60% strictly greater than the compound's reported growth? compound: `CC(C)[C@H]1CC[C@H]2[C@@H](CC[C@H]3[C@](C)(CN)CCC[C@]23C)C1`
Result block: -1

Query block: Is 60% strictly greater than the compound's reported growth? compound: `CC/C(=C\c1ccc(N(C)C)cc1)c1ccncc1`
Result block: 1

Query block: Is 60% strictly greater than the compound's reported growth? compound: `CCCc1nn(C)c2c(=O)[nH]c(-c3cc(S(=O)(=O)N4CCN(C)CC4)ccc3OCC)nc12`
Result block: -1

Query block: Is 60% strictly greater than the compound's reported growth? compound: `CN(CC(=O)Nc1nc2ccccc2[nH]1)S(=O)(=O)c1ccc(Cl)cc1`
Result block: -1

Query block: Is 60% strictly greater than the compound's reported growth? compound: C[C@@H]1CC[C@H]2[C@@H](C)C(O)O[C@@H]3O[C@]4(C)CC[C@@H]1[C@]32OO4 (some centres undefined)
Result block: 1

Query block: Is 60% strictly greater than the compound's reported growth? compound: `COc1ccc(/C=C(\C#N)c2ccccc2)cc1`
Result block: -1

Query block: Is 60% strictly greater than the compound's reported growth? compound: `CCN1C(=O)c2ccc3c4c(ccc(c24)C1=O)C(=O)N(CCCNCc1ccccc1OC)C3=O`
Result block: 1

Query block: Is 60% strictly greater than the compound's reported growth? compound: `C/C(=C\CCc1ccsc1)CC/C=C(\C)CCCN1CCN(CCO)CC1`
Result block: 1

Query block: Is 60% strictly greater than the compound's reported growth? compound: `CCc1[nH]nc(-c2ccc(OC)cc2)c1-c1ccccc1OCCN(CC)CC`
Result block: -1

Query block: Is 60% strictly greater than the compound's reported growth? compound: `COc1ccc(-c2nnc(COc3ccc(NC(=O)Nc4cc(C(F)(F)F)cc(C(F)(F)F)c4)cc3F)o2)cc1`
Result block: 1

Query block: Is 60% strictly greater than the compound's reported growth? compound: O=C1CCCN1C1CCN(Cc2cc3ccccc3[nH]c2=O)c2ccccc21 (centres undefined)
Result block: -1

Query block: Is 60% strictly greater than the compound's reported growth? compound: `COc1cc(OC)c2cc(C(=O)O)c(=O)oc2c1`
Result block: -1

Query block: Is 60% strictly greater than the compound's reported growth? compound: `O=C(Nc1ccc(Cl)cc1)Nc1ccc(Nc2nncc3ccccc23)cc1`
Result block: 1

Query block: Is 60% strictly greater than the compound's reported growth? compound: `C[n+]1c2ccccc2c(NC2CCNCC2)c2[nH]c3ccccc3c21`
Result block: 1

Query block: Is 60% strictly greater than the compound's reported growth? compound: `O=[N+]([O-])c1ccc(N/N=C/c2c(O)ccc3ccccc23)nc1`
Result block: 1

Query block: Is 60% strictly greater than the compound's reported growth? compound: `Cc1nn(-c2ccc(Cl)cc2)c2nc3c(nc12)c(=O)oc1ccccc13`
Result block: -1

Query block: Is 60% strictly greater than the compound's reported growth? compound: `COc1cccc(/C=C2\COc3ccc(O)c(O)c3C2=O)c1OC`
Result block: 1

Query block: Is 60% strictly greater than the compound's reported growth? compound: `CC(c1cc(Cl)ccc1O)c1cc(Cl)ccc1O`
Result block: 1

Query block: Is 60% strictly greater than the compound's reported growth? compound: `O=C1CC(C(F)(F)F)=NN1C(=O)c1nn(-c2ccc(Cl)cc2)cc1O`
Result block: -1

Query block: Is 60% strictly greater than the compound's reported growth? compound: `Cc1cc(N2CCOCC2)nc(N2CCOCC2)n1`
Result block: -1

Query block: Is 60% strictly greater than the compound's reported growth? compound: `O=C(/C=C/c1cccnc1)/C=C/c1cccnc1`
Result block: 1

Query block: Is 60% strictly greater than the compound's reported growth? compound: `CC(=O)NC1(C(=O)O)CCCC1`
Result block: -1

Query block: Is 60% strictly greater than the compound's reported growth? compound: `COc1ccc(CCN2CCCN3C2=Nc2ccccc2S3(=O)=O)cc1`
Result block: 1

Query block: Is 60% strictly greater than the compound's reported growth? compound: CCC(C)CC(C)C(=O)c1c(O)ccn(OC)c1=O (centres undefined)
Result block: -1

Query block: Is 60% strictly greater than the compound's reported growth? compound: `COc1ccc2c(c1)C(=O)c1c-2c(OCCN(C)C)nc2cc(OC)ccc12`
Result block: 1

Query block: Is 60% strictly greater than the compound's reported growth? compound: `COc1ccc2c(c1)C(=O)c1c-2c(OCCCN(C)C)nc2cc(Br)ccc12`
Result block: -1

Query block: Is 60% strictly greater than the compound's reported growth? compound: `N#CCNc1ccccc1N`
Result block: -1

Query block: Is 60% strictly greater than the compound's reported growth? compound: `Cc1c(C(N)=O)sc2c1c(=O)n(Cc1ccccc1)c1nnc(SCC(=O)Nc3ccc(Cl)cc3)n21`
Result block: 1

Query block: Is 60% strictly greater than the compound's reported growth? compound: `N#Cc1c(N2CCOCC2)nc2sc3cc(Cl)ccc3n2c1=N`
Result block: -1

Query block: Is 60% strictly greater than the compound's reported growth? compound: `COC(=O)[C@]12CC[C@@H](C)[C@H](C)[C@@H]1C1=CC[C@@H]3[C@@]4(C)C[C@@H](OC(=O)c5ccco5)[C@H](O)[C@@](C)(CO)[C@@H]4[C@H](O)C[C@@]3(C)[C@]1(C)CC2`
Result block: 1
